tested on: Streptococcus pneumoniae; test: Antibacterial activity against fluoroquinolone resistance Streptococcus pneumoniae SP3765; format: functional
READOUT: MIC (mg/L)

1) CC1COc2c(N3CC[C@@H]([C@H](C)NCCC#N)C3)c(F)cc3c(=O)c(C(=O)O)cn1c23 (stereo not given in full); 0.25
2) CN[C@@H](CC#N)[C@@H]1CCN(c2c(F)cc3c(=O)c(C(=O)O)cn(C4CC4)c3c2OC)C1; 0.5
3) CC1COc2c(N3CC[C@@H]([C@H](C)N)C3)c(F)cc3c(=O)c(C(=O)O)cn1c23 (stereo not given in full); 0.25
4) Cc1c(N2CC[C@@H]([C@H](C)N)C2)c(F)cc2c(=O)c(C(=O)O)cn(C3CC3)c12; 0.03
5) Cc1c(N2CC[C@@H]([C@H](C)NCCC#N)C2)c(F)cc2c(=O)c(C(=O)O)cn(C3CC3)c12; 0.06
6) CN[C@@H](C)[C@@H]1CCN(c2c(F)cc3c(=O)c(C(=O)O)cn(C4CC4)c3c2OC)C1; 0.125
7) COc1c(N2CC[C@@H]([C@@H](N)CC#N)C2)c(F)cc2c(=O)c(C(=O)O)cn(C3CC3)c12; 0.125
8) O=C(O)c1cn(C2CC2)c2cc(N3CCNCC3)c(F)cc2c1=O; 16
9) COc1c(N2CC[C@@H]([C@H](C)N)C2)c(F)cc2c(=O)c(C(=O)O)cn(C3CC3)c12; 0.03
10) CN[C@@H](CC#N)[C@@H]1CCN(c2c(F)cc3c(=O)c(C(=O)O)cn4c3c2OCC4C)C1 (stereo not given in full); 2
11) COc1c(N2CC[C@@H](CN)C2)c(F)cc2c(=O)c(C(=O)O)cn(C3CC3)c12; 1
12) COc1c(N2CC[C@@H]([C@H](C)NCCC#N)C2)c(F)cc2c(=O)c(C(=O)O)cn(C3CC3)c12; 0.125
13) COc1c(N2CC[C@@H](CNCCC#N)C2)c(F)cc2c(=O)c(C(=O)O)cn(C3CC3)c12; 2
14) COc1c(N2CC[C@@H]([C@H](C)N)C2)ccc2c(=O)c(C(=O)O)cn(C3CC3)c12; 0.125
15) COc1c(N2CC[C@@H](CNCCC#N)C2)ccc2c(=O)c(C(=O)O)cn(C3CC3)c12; 2
